target.or.test.system: Cbl-b (truncated variant, UniProt number Q13191) (Homo sapiens, UniProt Q13191)
Construct: made in house
Sequence (Q13191 36-427): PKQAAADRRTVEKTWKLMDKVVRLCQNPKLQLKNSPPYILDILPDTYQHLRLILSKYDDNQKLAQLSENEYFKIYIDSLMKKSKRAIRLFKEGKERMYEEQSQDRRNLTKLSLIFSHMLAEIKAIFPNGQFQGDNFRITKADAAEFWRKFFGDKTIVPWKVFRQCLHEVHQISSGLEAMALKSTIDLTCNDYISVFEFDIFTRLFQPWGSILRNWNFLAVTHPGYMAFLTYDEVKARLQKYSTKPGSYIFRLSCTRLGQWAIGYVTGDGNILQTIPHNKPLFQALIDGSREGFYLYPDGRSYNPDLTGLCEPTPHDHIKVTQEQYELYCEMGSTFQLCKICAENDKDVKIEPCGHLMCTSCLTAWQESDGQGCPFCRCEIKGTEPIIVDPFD
experiment.description: Cbl-b activity assay (TR-FRET, interaction of Cbl-b with UbcH5B-Ub)
Format: biochemical
condition.description: high conditions: 100 mM NaCl, 60 nM Src kinase; 12 nM Cbl-b; read-out: Cbl-b activity IC50
pIC50: −log10 of the molar value.
test.readout: pIC50

>>> print(df.to_string())
                                   compound  test_readout   test_result
0  C[C@H](Sc1nncn1C)c1cccc(NC(=O)N2CCC(C(F)F)C2)c1 (some centres unmarked)         pIC50        ≤ 5.30
1  C[C@H](Sc1nncn1C)c1cccc(NC(=O)N2CC(OC(F)(F)F)C2)c1         pIC50        ≤ 5.30
2  C[C@H](Sc1nncn1C)c1cccc(NC(=O)N2Cc3cccc(O)c3C2)c1         pIC50  6.00 to 7.00
3  C[C@H](Sc1nncn1C)c1cccc(-n2cc(-c3ccc(C#N)cc3)nn2)c1         pIC50  5.30 to 6.00
4  C[C@H](Sc1nncn1C)c1cccc(-n2ncc(-c3ccccc3)n2)c1         pIC50  6.00 to 7.00
5  C[C@H](Sc1nncn1C)c1cccc(NC(=O)N2CC(c3cnn(C)c3)C(C)(C)C2)c1 (some centres unmarked)         pIC50        ≤ 5.30
6  C[C@H](Sc1nncn1C)c1cccc(NC(=O)N2CC3CCCC3C2)c1 (some centres unmarked)         pIC50  5.30 to 6.00
7  CNS(=O)(=O)c1cc(NC(=O)Nc2cccc([C@H](C)Sc3nncn3C)c2)ccc1C         pIC50        ≤ 5.30
8  C[C@H](Sc1nncn1C)c1cccc(-n2ncc(-c3ccc(CO)cc3)n2)c1         pIC50  5.30 to 6.00
9  C[C@@H](Sc1nncn1C)c1cccc(-c2cc(-c3ccccc3)n[nH]2)c1         pIC50        ≤ 5.30

In one line, give reported pIC50 of the entry Cn1cnnc1C(F)(F)[C@](C)(F)c1cccc(NC(=O)N2CC3(CNC3)Oc3cccnc32)c1 .
> 7.00

Identify measured pIC50 corresponding to CCn1cc(CN(C)C(=O)Nc2cccc([C@H](C)Sc3nncn3C)c2)cn1
≤ 5.30

Identify measured pIC50 associated with C[C@H](Sc1nncn1C)c1cccc(-c2cc(-c3ccccc3)no2)c1
5.30 to 6.00

Give recorded pIC50. C[C@H](Sc1nncn1C)c1cccc(NC(=O)N2CCOC(CC(F)(F)F)C2)c1 (some centres unmarked)
≤ 5.30

Report pIC50 for CNC(=O)C1(C(F)(F)F)CCN(C(=O)Nc2cccc([C@H](C)Cc3nncn3C)c2)C1 (some centres unmarked)
6.00 to 7.00

Assign pIC50 to the following record: C[C@H](Cc1nncn1C)c1cccc(-c2cc(-c3ncccn3)n[nH]2)c1
6.00 to 7.00

Please supply the value of reported pIC50 for the item CC(Sc1nncn1C)c1ccnc(-n2ncc(-c3ccccc3)n2)c1 (centres unmarked)
≤ 5.30
